Overview of reported Ki across a group of molecules:
- TGT: cloned human CCR8 receptor stably expressed in L1.2 cells (Homo sapiens, UniProt P51685)
- Construct: expressed in transfected cells
- Sequence (P51685 whole entry): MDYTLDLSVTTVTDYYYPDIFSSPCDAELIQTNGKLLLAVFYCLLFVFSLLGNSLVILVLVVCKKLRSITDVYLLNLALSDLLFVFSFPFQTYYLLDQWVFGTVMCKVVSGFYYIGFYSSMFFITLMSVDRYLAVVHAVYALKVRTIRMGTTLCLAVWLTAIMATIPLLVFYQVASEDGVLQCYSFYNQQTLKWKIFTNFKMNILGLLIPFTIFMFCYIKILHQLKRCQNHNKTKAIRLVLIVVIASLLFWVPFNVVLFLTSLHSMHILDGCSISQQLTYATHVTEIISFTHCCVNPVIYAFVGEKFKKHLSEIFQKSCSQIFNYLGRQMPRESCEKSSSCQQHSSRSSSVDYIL
- ASSAY PROTOCOL: whole cell binding screen: inhibition of biotinylated human I309 binding to CCR8 (FMAT 8100 HTS)
- PARTICULARS: L1.2/hCCR8 cells, biotinylated human I-309, 10 point concentration response starting at 10 μM; read-out: Ki of compounds to inhibit I-309 binding to CCR8

Sample answers from the record:
Cc1ccccc1NC(=O)c1ccc(S(=O)(=O)NC2CCN(C(=O)OC(C)(C)C)CC2)c2ccccc12 : < 500 nM
CCOC(=O)N1CC[C@H](NS(=O)(=O)c2ccc(NC(=O)c3ccccc3C)c3ncccc23)[C@H](C)C1 : < 500 nM
CCOC(=O)N1CCC(NS(=O)(=O)c2cccc3c(NC(=O)C4CCCCC4)c(C)ccc23)CC1 : < 1000 nM

Note: attention shifts to another entry.
Field Ki (entry Cc1ccccc1C(=O)Nc1ccc(S(=O)(=O)N[C@@H]2CCN(C(=O)CN3CCCCC3)C[C@@H]2C)c2ccccc12 (racemic) ) reads < 30000 nM

====

Overview of reported Ki across a group of compounds:
- TGT: cloned human CCR8 receptor stably expressed in L1.2 cells (Homo sapiens)
- Construct: expressed in transfected cells
- ASSAY PROTOCOL: whole cell binding screen: inhibition of biotinylated human I309 binding to CCR8 (FMAT 8100 HTS)
- PARTICULARS: L1.2/hCCR8 cells, biotinylated human I-309, 10 point concentration response starting at 10 μM; read-out: Ki of compounds to inhibit I-309 binding to CCR8

Field Ki (entry CCCC(=O)N1CCC(NS(=O)(=O)c2cc3c(c(N4C(=O)c5ccccc5C4=O)c2)CCCC3)CC1 ) reads < 30 µM

Field Ki (entry CCOC(=O)[C@@H]1CNCC[C@@H]1NS(=O)(=O)c1ccc(NC(=O)c2ccccc2C)c2ccccc12 [Compound J-55] ) reads < 5 µM

Field Ki (entry Cc1ccccc1C(=O)Nc1ccc(S(=O)(=O)N[C@H]2CCN(C(=O)C3CCCN3)C[C@H]2C)c2cccnc12 (stereo in doubt) ) reads < 0.5 µM

Field Ki (entry O=C(Nc1cccc2c(S(=O)(=O)NC3CCN(C(=O)N4CCOCC4)CC3)cccc12)c1ccccc1 ) reads < 0.5 µM

Field Ki (entry CCNC(=O)N1CCC(NS(=O)(=O)c2ccc(NC(=O)c3ccccc3C)c3c2CCC3)CC1 ) reads < 0.5 µM

Field Ki (entry Cc1ccccc1C(=O)Nc1ccc(S(=O)(=O)N[C@@H]2CCN(C(=O)CN3CCOCC3)C[C@@H]2C)c2ccccc12 (racemic) ) reads < 1 µM

Field Ki (entry Cc1ccccc1C(=O)Nc1ccc(S(=O)(=O)N[C@H]2CCNC[C@@H]2C)c2ccccc12 [Compound J-44] ) reads < 0.5 µM

====

- TGT: cloned human CCR8 receptor stably expressed in L1.2 cells (Homo sapiens, UniProt P51685)
- Construct: expressed in transfected cells
- ASSAY PROTOCOL: whole cell binding screen: inhibition of biotinylated human I309 binding to CCR8 (FMAT 8100 HTS)
- PARTICULARS: Ki of compounds to inhibit I-309 binding to CCR8, L1.2/hCCR8 cells, biotinylated human I-309, 10 point concentration response starting at 10 μM
pKi: −log10 of the molar value.
Overview of reported pKi across a group of molecules:

Sample answers from the record:
CCOC(=O)N1CCC(NS(=O)(=O)c2ccc(NC(=O)c3ccccc3)c3ccccc23)CC1 : > 4.52
CCOC(=O)N1CCC(NS(=O)(=O)c2ccc(C(=O)NC3CCCCC3)c3ccccc23)CC1 : > 6.30

// molecule CCCNC(=O)N1CCC(NS(=O)(=O)c2ccc(NC(=O)c3ccccc3C)c3ccccc23)CC1 , assay cloned human CCR8 receptor stably expressed in L1.2 cells (Homo sapiens, UniProt P51685), pKi value: > 6.30

// molecule Cc1ccccc1C(=O)Nc1ccc(S(=O)(=O)NC2CCN(C(=O)C(C)C)CC2)c2ccccc12 , assay cloned human CCR8 receptor stably expressed in L1.2 cells (Homo sapiens, UniProt P51685), pKi value: > 6.30

The values you see were collected from patent US7491827B2.
